B1: Histidine--tRNA ligase, cytoplasmic, residues 8 to 45; numbered along this chain, P12081 (parent)
chain: EELVKLQGERVRGLKQQKASAELIEEEVAKLLKLKAQL

# Variants of: B1
# Assay Overview: abundance fitness (aPCA) (normalised: wild type 0, dead -1); higher = more abundant; growth selection in yeast, the domain comes from the species named
# Test Context: Homo sapiens
Please enter yes (1) where abundance fitness is greater than or equal to -0.1, and no (0) where it is lower.

>  <Variant>
L38S

>  <Category Label>
yes (1)

$$$$
>  <Variant>
K18H

>  <Category Label>
yes (1)

$$$$
>  <Variant>
L3C

>  <Category Label>
no (0)

$$$$
>  <Variant>
K5Q

>  <Category Label>
yes (1)

$$$$
>  <Variant>
K5F

>  <Category Label>
no (0)

$$$$
>  <Variant>
V28K

>  <Category Label>
yes (1)

$$$$
>  <Variant>
E9Q

>  <Category Label>
no (0)

$$$$
>  <Variant>
L14Y

>  <Category Label>
no (0)

$$$$
>  <Variant>
I24T

>  <Category Label>
yes (1)

$$$$
>  <Variant>
K35W

>  <Category Label>
no (0)

$$$$
>  <Variant>
V28P

>  <Category Label>
no (0)

$$$$
>  <Variant>
Q37H

>  <Category Label>
no (0)

$$$$
>  <Variant>
V11E

>  <Category Label>
yes (1)

$$$$
>  <Variant>
R12I

>  <Category Label>
yes (1)

$$$$
>  <Variant>
Q37G

>  <Category Label>
yes (1)

$$$$
>  <Variant>
A19Y

>  <Category Label>
no (0)

$$$$
>  <Variant>
K5H

>  <Category Label>
no (0)

$$$$
>  <Variant>
Q37M

>  <Category Label>
yes (1)

$$$$
>  <Variant>
Q16K

>  <Category Label>
yes (1)

$$$$
>  <Variant>
G8K

>  <Category Label>
yes (1)

$$$$
>  <Variant>
L3D

>  <Category Label>
no (0)

$$$$
>  <Variant>
A19T

>  <Category Label>
no (0)

$$$$
>  <Variant>
L31Y

>  <Category Label>
no (0)

$$$$
>  <Variant>
L14G

>  <Category Label>
no (0)

$$$$
>  <Variant>
L34W

>  <Category Label>
no (0)

$$$$
>  <Variant>
L23D

>  <Category Label>
yes (1)

$$$$
>  <Variant>
L14F

>  <Category Label>
no (0)

$$$$
>  <Variant>
G8S

>  <Category Label>
yes (1)

$$$$
>  <Variant>
A19M

>  <Category Label>
yes (1)

$$$$
>  <Variant>
V4R

>  <Category Label>
no (0)

$$$$
>  <Variant>
K30T

>  <Category Label>
no (0)

$$$$
>  <Variant>
L3P

>  <Category Label>
no (0)

$$$$
>  <Variant>
E1H

>  <Category Label>
no (0)

$$$$
>  <Variant>
V4E

>  <Category Label>
no (0)

$$$$
>  <Variant>
Q16I

>  <Category Label>
no (0)

$$$$
>  <Variant>
I24R

>  <Category Label>
no (0)

$$$$
>  <Variant>
A29Q

>  <Category Label>
yes (1)

$$$$
>  <Variant>
A29F

>  <Category Label>
no (0)

$$$$
>  <Variant>
Q17H

>  <Category Label>
no (0)

$$$$
>  <Variant>
L34C

>  <Category Label>
no (0)

$$$$
>  <Variant>
K35F

>  <Category Label>
no (0)

$$$$
>  <Variant>
E22F

>  <Category Label>
no (0)

$$$$
>  <Variant>
R12W

>  <Category Label>
yes (1)

$$$$
>  <Variant>
E25I

>  <Category Label>
no (0)

$$$$
>  <Variant>
Q37Y

>  <Category Label>
no (0)

$$$$
>  <Variant>
E26L

>  <Category Label>
yes (1)

$$$$
>  <Variant>
E9I

>  <Category Label>
no (0)

$$$$
>  <Variant>
A19Q

>  <Category Label>
no (0)

$$$$
>  <Variant>
E22D

>  <Category Label>
yes (1)

$$$$
>  <Variant>
L6N

>  <Category Label>
yes (1)

$$$$
>  <Variant>
V28I

>  <Category Label>
no (0)

$$$$
>  <Variant>
L38A

>  <Category Label>
yes (1)

$$$$
>  <Variant>
A19D

>  <Category Label>
no (0)

$$$$
>  <Variant>
L34H

>  <Category Label>
yes (1)

$$$$
>  <Variant>
V11M

>  <Category Label>
no (0)

$$$$
>  <Variant>
A19L

>  <Category Label>
no (0)

$$$$
>  <Variant>
Q7Y

>  <Category Label>
no (0)

$$$$
>  <Variant>
A29V

>  <Category Label>
no (0)

$$$$
>  <Variant>
L32Q

>  <Category Label>
yes (1)

$$$$
>  <Variant>
K15E

>  <Category Label>
yes (1)

$$$$
>  <Variant>
K18D

>  <Category Label>
yes (1)

$$$$
>  <Variant>
E26R

>  <Category Label>
yes (1)

$$$$
>  <Variant>
L23R

>  <Category Label>
yes (1)

$$$$
>  <Variant>
E27M

>  <Category Label>
no (0)

$$$$
>  <Variant>
L34D

>  <Category Label>
yes (1)

$$$$
>  <Variant>
E22W

>  <Category Label>
no (0)

$$$$
>  <Variant>
K33S

>  <Category Label>
yes (1)

$$$$
>  <Variant>
K15L

>  <Category Label>
no (0)

$$$$
>  <Variant>
G8C

>  <Category Label>
no (0)

$$$$
>  <Variant>
E27P

>  <Category Label>
no (0)

$$$$
>  <Variant>
L38T

>  <Category Label>
yes (1)

$$$$
>  <Variant>
K15G

>  <Category Label>
no (0)

$$$$
>  <Variant>
E25Q

>  <Category Label>
yes (1)

$$$$
>  <Variant>
L6Y

>  <Category Label>
no (0)

$$$$
